Assign TGI to each entry below.
# System: HOP-18 NSCLC
# testDescription: NCI tumour cell line growth inhibition, 48 h

IN: Quick one: TGI for CCCC(O)c1ccc2[nH]c3c(C)cc([N+](=O)[O-])c(C)c3c2c1 (stereo unspecified) ?
OUT: > 100 µM

IN: Quick one: TGI for C(=C\c1ccc2ccccc2c1Nc1ccccc1)/c1ccccc1 ?
OUT: > 88.1 µM

IN: Quick one: TGI for CC/C(CC(=O)CCC(=O)Nc1ccc(C)c(C)c1)=N\NC(=O)c1cc2ccccc2cc1O ?
OUT: 88.1 µM

IN: Quick one: TGI for COc1cc(O)c(C(=O)C2Cc3ccccc32)c(OC)c1 (stereo unspecified) ?
OUT: > 100 µM

IN: Quick one: TGI for O=C1OCc2nc3c(c(-c4ccccc4C(F)(F)F)c21)C(=O)OC3 ?
OUT: > 100 µM

IN: Quick one: TGI for CSCSCC(CO)NC(=O)/C=C/c1c(C)[nH]c(=O)[nH]c1=O (stereo unspecified) ?
OUT: > 100 µM

Value source: PubChem BioAssay (NCI)
